System: Trypanosoma brucei
Assay Info: Antimicrobial activity against procyclic form of Trypanosoma brucei 427 assessed as inhibition of cell proliferation after 72 hrs by alamar blue assay
Format: functional, organism-based
Condition: Trypanosoma brucei, 427, 72 h
Measured Parameter: pIC50
Answers are plain numbers, as −log10 of the molar value.

mol=COc1cc2cc(C(=O)Nc3cc(O)c4ncc(C)cc4c3CCCl)[nH]c2c(OC)c1OC target_or_system="Trypanosoma brucei" measured_parameter=pIC50 assay_result=7.25

State the recorded pIC50 for this entry: `COc1cc2cc(C(=O)Nc3cc(N)c4ccccc4c3CCCl)[nH]c2c(OC)c1OC` 8.72
